Recorded % Importing cells values for a group of molecules are listed next.
System: PEX405 cells
Test: Catalase import immunofluorescence, high-content screening (% importing cells)
Assay type: cell-based, human
Conditions: PEX405 cells, 1.3 µM, 3 days
Quick reminder: number only, in %, skip the unit.

Consider the following illustrative entries.
O=C(NO)c1ccc(Cn2c(=O)n(CCc3ccccc3)c(=O)c3ccccc32)cc1 [J22352] = 5
O=C1CCc2c(ccc3ccccc23)O1 [Splitomicin] = 5
CC(C)(C)c1ccc(C(=O)Nc2ccc(C(=O)NO)cc2)cc1 [AES-350] = 5
Cn1c(/C=C/C(=O)NO)ccc1/C=C/C(=O)c1cccc(F)c1 [MC1568] = 5

Give recorded % Importing cells with PEX405 cells for the following molecule: CN1CCc2c(c3ccccc3n2Cc2ccc(C(=O)NO)cc2)C1 [Tubastatin A]
5

Give recorded % Importing cells with PEX405 cells for the following molecule: Nc1ccccc1NC(=O)c1ccc(CNc2nccc(-c3cccnc3)n2)cc1 [Mocetinostat]
15

Give recorded % Importing cells with PEX405 cells for the following molecule: O=C(NO)C(c1ccc(-c2ncc(C(F)(F)F)cn2)cc1)c1ccccc1F (stereo not shown) [CHDI-390576]
2

Give recorded % Importing cells with PEX405 cells for the following molecule: O=C(NO)c1cccc2ccccc12 [1-Naphthohydroxamic acid]
3

Give recorded % Importing cells with PEX405 cells for the following molecule: COc1ccc(-c2nc(N3CCOCC3)c3sc(CN(C)c4ncc(C(=O)NO)cn4)cc3n2)cn1 [Fimepinostat]
25

Give recorded % Importing cells with PEX405 cells for the following molecule: CC(=O)Nc1ccc(C(=O)Nc2cc(-c3cccs3)ccc2N)cc1 [BRD-6929]
20
